target: Prostaglandin G/H synthase 1 (Bos taurus); experiment: Inhibition of bovine COX1 at 100 uM using arachidonic acid as substrate preincubated for 5 mins followed by substrate addition and measured after 5 mins by […]-based fluorescence assay relative to control
Observable: inhibition (%)

Use the examples below as a reference point.
| Smi | Units of measure | inhibition |
| --- | --- | --- |
| CC(=O)Nc1ccc(-n2c(-c3ccc(Cl)cc3)nc3ccccc32)cc1 | % | 47.4 |
| CC(=O)Nc1ccc(-n2c(-c3ccc(Br)cc3)nc3ccccc32)cc1 | % | 48.7 |
| O=[N+]([O-])c1ccc(-c2nc3ccccc3n2-c2ccc([N+](=O)[O-])cc2)cc1 | % | 29.3 |

[I] O=[N+]([O-])c1ccc(-n2c(-c3ccccc3)nc3ccccc32)cc1
[II] O=[N+]([O-])c1ccc(-n2c(-c3ccc(Cl)cc3)nc3ccccc32)cc1
Challenge: Recorded inhibition values differ for I and II ; which one is higher? Refer to your chosen item by its label in the answer.
Response given: I

###

Entries and their viability at 24 h, 500 µM
assay: Cytotoxicity against mouse RAW264.7 cells assessed as cell viability at 500 uM measured after 24 hrs by MTT assay relative to control; type: cell-based; conditions: read-out: Activity

| Smi | Recorded measurement |
| --- | --- |
| Nc1ccc(-c2nc3ccccc3n2-c2ccc(N)cc2)cc1 | ≥ 80% |
| Nc1ccc(-n2c(-c3ccc(Br)cc3)nc3ccccc32)cc1 | ≥ 80% |
| O=[N+]([O-])c1ccc(-c2nc3ccccc3n2-c2ccc([N+](=O)[O-])cc2)cc1 | ≤ 90% |

Next, consider the following compound.
Challenge: # query: viability at 24 h, 500 µM of entry Nc1ccc(-n2c(-c3ccc(Cl)cc3)nc3ccccc32)cc1
Response given: ≥ 80%

###

experiment: Selectivity index, ratio of inhibition of human recombinant COX-2 at 100 uM to inhibition of bovine COX-1 at 100 uM
Observable: Selectivity Index

| Smi | Observable | Recorded measurement |
| --- | --- | --- |
| Nc1ccc(-n2c(-c3ccc(Cl)cc3)nc3ccccc32)cc1 | Selectivity Index | 1.15 |

[A] O=[N+]([O-])c1ccc(-n2c(-c3ccccc3)nc3ccccc32)cc1
[B] CC(=O)Nc1ccc(-c2nc3ccccc3n2-c2ccc(NC(C)=O)cc2)cc1
[C] O=[N+]([O-])c1ccc(-c2nc3ccccc3n2-c2ccc([N+](=O)[O-])cc2)cc1
Challenge: // smallest Selectivity Index at index 0, largest at the end Please write the labels in the order that was asked for.
Response given: B, A, C
(B: 0.53, A: 1.05, C: 1.63)
